Measured apparent KD of K4 kissing-loop reporter by item
Test system: K4 kissing-loop RNA reporter;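 also: bound reporter read as fluorescence of individual clusters on recovered sequencing chips by microscopy, with normalized cluster intensities fitted with a binding model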
Assay: apparent KD of K4 kissing-loop reporter; higher = weaker reporter binding
Conditions: Eterna round: R107; input ligand: arginine 13.2 mM
Numbers only here, please. The scale is nM.

>  <sequenceData>
UGGGCCGCCUGAGGAUAUAGAGACGAGUGAUGUUCGUGGAUCAGAGCCAGUGAUGUUGGGUUAUUUCUAGAAGGCGGGCGAACUU [Exclusion FMN B GF10]

>  <units>
nM

>  <apparent KD of K4 kissing-loop reporter>
112

$$$$
>  <sequenceData>
UUGCCUUUGAGCGAUACCAGCAGCGUCGGCCUUAGAUUGGGAGGCAUGGCAAGUGAUGUUUGCCCUUGGCAGCGCGUAUAGUACA [theeternabot_exclusion_KL_Theo_B_7]

>  <units>
nM

>  <apparent KD of K4 kissing-loop reporter>
320

$$$$
>  <sequenceData>
AGGGAACGCACGGAUACCAGACUCAUAGUGAUGUUGUGGGUAUAAAUUAGCGCAUACACAGUCCCUUGGCAGCCGCUGAAUGGCC [theeternabot_exclusion_KL_Theo_B_1]

>  <units>
nM

>  <apparent KD of K4 kissing-loop reporter>
644

$$$$
>  <sequenceData>
GAUUAAUAAGAGGAUACCAGUACAAAUAAAGUACAUUAAUAGUAGAGUGAUGUUCUAAAGUACCCUUGGCAGCUUAGAGUAAGUU [ExTheophylB.A]

>  <units>
nM

>  <apparent KD of K4 kissing-loop reporter>
207

$$$$

For the sequence CGAGUGAUGUUCGUUUUUUUAUUUUUUUGACAGGAUAUGCGGAAACGCAGAAGGGUCACCUUUGAGUUAAAAGAAUUUAAAUUAU [Ex FMN A 23] , what apparent KD of K4 kissing-loop reporter is on record? 208

For the sequence UAUACGAAGCAGUGAUGUUGCUUAUGAGAAGGAGCGCACGAAAGUGCAGGUAGGUCGCUCAGCCAUGUGGACGAAAACGUCCACA [whbob_SS_Arginine_A_sa110] , what apparent KD of K4 kissing-loop reporter is on record? 130

For the sequence AUGUGGAGCGACGUUUCGGGAUAUCGGGAAGGAGCGCUGAUAACGGCAGGUAGGUCGCCUGGUCCAGUGAUGUUGGGCAUGCAUU [Exclusion Arg A GF 24] , what apparent KD of K4 kissing-loop reporter is on record? 135
